- assay.explanation: Cytotoxicity against human Calu6 cells assessed as cellular ATP level after 72 hrs by luminescence-based ATPlite assay
- Format: cell-based, Calu-6
- applied.conditions: read-out: LC50
observable: CC50 at 72 h

> print(dat)
                                   molecule  endpoint.result
1  C=CCNC(=O)[C@H](CCc1ccccc1)NC(=O)[C@@H](NC(=O)c1ccc(OCc2ccccc2)cc1)[C@@H](C)O           2.8 µM
2  Cc1ccc(CNC(=O)[C@H](CCc2ccccc2)NC(=O)[C@@H](NC(=O)C(=O)c2c[nH]c3ccccc23)[C@@H](C)O)cc1         0.136 µM
3  CC(NC(=O)[C@H](CCc1ccccc1)NC(=O)[C@@H](NC(=O)c1ccc(OCc2ccccc2)cc1)[C@@H](C)O)c1ccccc1 (stereo partly drawn)             9 µM
4  C[C@@H](O)[C@H](NC(=O)c1ccc(OCc2ccccc2)cc1)C(=O)N[C@@H](CCc1ccccc1)C(=O)NCCc1cccs1          > 25 µM
5  COC[C@H](NC(=O)Cc1cccc(Oc2ccccc2)c1)C(=O)N[C@@H](CCc1ccccc1)C(=O)NCc1ccc(C)cc1          > 25 µM
6  COc1ccc2c(c1)C(CC(=O)N[C@H](C(=O)N[C@@H](CCc1ccccc1)C(=O)NCc1ccc(C)cc1)[C@@H](C)O)CC2=O (stereo partly drawn)           1.2 µM
7  COC[C@H](NC(=O)Cc1cccc(OCc2ccccc2)c1)C(=O)N[C@@H](CCc1ccccc1)C(=O)NCc1ccc(C)cc1          0.22 µM
8  COc1ccc2c(c1)CC(C(=O)N[C@H](C(=O)N[C@@H](CCc1ccccc1)C(=O)NCc1ccc(C)cc1)[C@@H](C)O)CC2 (stereo partly drawn)           2.3 µM

###

- assay.explanation: Inhibition of chymotrypsin-like activity of human 20s proteasome beta5 subunit in human erythrocyte assessed as hydrolysis of Ac-WLA-AMC fluorogenic substrate
// boundary case: IC50 equal to 0.02 µM maps to no; strictly smaller maps to yes

> print(dat)
                              smiles.record  classification
1  C[C@@H](O)[C@H](NC(=O)c1ccc(OCc2ccccc2)cc1)C(=O)N[C@@H](CCc1ccccc1)C(=O)N(C)Cc1ccccc1              no
2  Cc1ccc(CNC(=O)[C@H](CCc2ccccc2)NC(=O)[C@H](CCc2ccccc2)NC(=O)[C@H](CCc2ccccc2)NC(=O)c2cnc(C)cn2)cc1             yes
3  COC[C@H](NC(=O)Cc1cccc(Oc2ccccc2)c1)C(=O)N[C@@H](CCc1ccccc1)C(=O)NCc1ccc(C)cc1              no
4  Cc1ccc(CNC(=O)[C@H](CCc2ccccc2)NC(=O)[C@H](CCc2ccccc2)NC(=O)Cc2cccc(Oc3ccccc3)c2)cc1              no
5  C[C@@H](O)[C@H](NC(=O)c1ccc(OCc2ccccc2)cc1)C(=O)N[C@@H](CCc1ccccc1)C(=O)NCc1ccccc1Cl             yes

###

- assay.explanation: Cytotoxicity against human Calu6 cells assessed as cellular ATP level after 72 hrs by luminescence-based ATPlite assay
- Format: cell-based, Calu-6
- applied.conditions: read-out: LC50
observable: log10(CC50 at 72 h) (log10 of the value in µM)

> print(dat)
                               smiles.record           observable  endpoint.result
 1  C[C@@H](O)[C@H](NC(=O)c1ccc(OCc2ccccc2)cc1)C(=O)N[C@@H](CCc1ccccc1)C(=O)N(C)Cc1ccccc1  log10(CC50 at 72 h)             0.82
 2  Cc1ccccc1CCC(=O)N[C@H](C(=O)N[C@@H](CCc1ccccc1)C(=O)NCc1ccccc1Cl)[C@@H](C)O  log10(CC50 at 72 h)             0.43
 3  C[C@@H](O)[C@H](NC(=O)c1ccc(OCc2ccccc2)cc1)C(=O)N[C@@H](CCc1ccccc1)C(=O)NCc1ccccc1Cl  log10(CC50 at 72 h)            -0.54
 4  Cc1ccsc1CNC(=O)[C@H](CCc1ccccc1)NC(=O)[C@@H](NC(=O)c1ccc(OCc2ccccc2)cc1)[C@@H](C)O  log10(CC50 at 72 h)            -0.96
 5  Cc1ccc(CNC(=O)[C@H](CCc2ccccc2)NC(=O)[C@@H](NC(=O)CCc2ccccc2C)[C@@H](C)O)cc1  log10(CC50 at 72 h)             0.36
 6  Cc1ccc(CNC(=O)[C@H](CCc2ccccc2)NC(=O)[C@@H](NC(=O)c2ccc(OCc3ccccc3)cc2)[C@@H](C)O)cc1  log10(CC50 at 72 h)            -0.42
 7  Cc1ccc(CNC(=O)[C@H](CCc2ccccc2)NC(=O)[C@H](CCc2ccccc2)NC(=O)[C@H](CCc2ccccc2)NC(=O)c2cnc(C)cn2)cc1  log10(CC50 at 72 h)            -0.85
 8  Cc1ccc(CNC(=O)[C@H](CCc2ccccc2)NC(=O)[C@@H](NC(=O)C(C)(C)Oc2ccccc2Cl)[C@@H](C)O)cc1  log10(CC50 at 72 h)             0.18
 9  CCNC(=O)[C@H](CCc1ccccc1)NC(=O)[C@@H](NC(=O)c1ccc(OCc2ccccc2)cc1)[C@@H](C)O  log10(CC50 at 72 h)             0.71
10  Cc1ccc(CNC(=O)[C@H](CCc2ccccc2)NC(=O)[C@@H](NC(=O)Cc2cccc(Oc3ccccc3)c2)[C@@H](C)O)cc1  log10(CC50 at 72 h)             1.18
11  Cc1ccc(CNC(=O)[C@H](CCc2ccccc2)NC(=O)[C@@H](NCc2ccc(OCc3ccccc3)cc2)[C@@H](C)O)cc1  log10(CC50 at 72 h)             1.15
12  CC(C)C[C@H](NC(=O)[C@H](Cc1ccccc1)NC(=O)c1cnccn1)B(O)O  log10(CC50 at 72 h)            -2.21
13  C[C@@H](O)[C@H](NC(=O)c1ccc(OCc2ccccc2)cc1)C(=O)N[C@@H](CCc1ccccc1)C(=O)NCc1ccccc1  log10(CC50 at 72 h)             0.15

###

- assay.explanation: Inhibition of chymotrypsin-like activity of human 20s proteasome beta5 subunit in human erythrocyte assessed as hydrolysis of Ac-WLA-AMC fluorogenic substrate
observable: IC50 (µM)

> print(dat)
                                    molecule  measurement.unit  bound.operator  endpoint.result
 1  Cc1ccc(CNC(=O)[C@H](CCc2ccccc2)NC(=O)[C@@H](NC(=O)CCc2ccccc2C)[C@@H](C)O)cc1                µM               =             0.12
 2  COc1ccc2c(c1)C(CC(=O)N[C@H](C(=O)N[C@@H](CCc1ccccc1)C(=O)NCc1ccc(C)cc1)[C@@H](C)O)CC2=O (some centres undefined)                µM               =            0.025
 3  C[C@@H](O)[C@H](NC(=O)c1ccc(OCc2ccccc2)cc1)C(=O)N[C@@H](CCc1ccccc1)C(=O)NCc1cccc(Cl)c1                µM               =             0.21
 4  C=CCNC(=O)[C@H](CCc1ccccc1)NC(=O)[C@@H](NC(=O)c1ccc(OCc2ccccc2)cc1)[C@@H](C)O                µM               =              0.1
 5  COc1ccc(CNC(=O)[C@@H](NC(=O)[C@H](Cc2cc(OC)c(OC)c(OC)c2)NC(=O)Cc2cccc(Oc3ccccc3)c2)C(C)C)c(O)c1                µM               =            0.015
 6  C[C@@H](O)[C@H](NC(=O)c1ccc(OCc2ccccc2)cc1)C(=O)N[C@@H](CCc1ccccc1)C(=O)NCc1ccccc1                µM               =            0.068
 7  Cc1ccc(CNC(=O)[C@H](CCc2ccccc2)NC(=O)[C@@H](NC(=O)C(=O)c2c[nH]c3ccccc23)[C@@H](C)O)cc1                µM               =           0.0073
 8  Cc1ccc(CNC(=O)[C@H](CCc2ccccc2)NC(=O)[C@@H](NCc2ccc(OCc3ccccc3)cc2)[C@@H](C)O)cc1                µM               =              3.1
 9  CCNC(=O)[C@H](CCc1ccccc1)NC(=O)[C@@H](NC(=O)c1ccc(OCc2ccccc2)cc1)[C@@H](C)O                µM               =             0.44
10  COC[C@H](NC(=O)Cc1cccc(OCc2ccccc2)c1)C(=O)N[C@@H](CCc1ccccc1)C(=O)NCc1ccc(C)cc1                µM               =            0.074
11  Cc1ccc(CNC(=O)[C@H](CCc2ccccc2)NC(=O)[C@@H](NC(=O)C(C)(C)Oc2ccccc2Cl)[C@@H](C)O)cc1                µM               =            0.075
12  CC(NC(=O)[C@H](CCc1ccccc1)NC(=O)[C@@H](NC(=O)c1ccc(OCc2ccccc2)cc1)[C@@H](C)O)c1ccccc1 (some centres undefined)                µM               >              100
13  Cc1ccc(CNC(=O)[C@H](CCc2ccccc2)NC(=O)[C@@H](NC(=O)Cc2cccc(Oc3ccccc3)c2)[C@@H](C)O)cc1                µM               =             0.45
14  C[C@@H](O)[C@H](NC(=O)c1ccc(OCc2ccccc2)cc1)C(=O)N[C@@H](CCc1ccccc1)C(=O)NCCc1cccs1                µM               =              3.2
